# ASSAY COMMENT: Oral bioavailability in rat
# Assay type: ADME, organism-based
# CONDITION INFO: in vivo
EXPERIMENTAL READOUT: bioavailability (%)
State just the number; it will be interpreted in %.

[Q] Consider the compound `CC(C)[C@]1(C)SC(N[C@H]2C[C@@H]3CC[C@H]2C3)=NC1=O` and give its measured bioavailability.
[A] 30

###

# ASSAY COMMENT: Drug excretion in male Sprague-Dawley rat feces treated with [14C]-AMG 221 at 2 mg/kg, po measured over 24 hrs by LC-MS/HPLC radiometric analysis
# Format: ADME, organism-based
# Parameters: dose 2 mg/kg, route oral
# CONDITION INFO: in vivo
Form field: Drug excretion (one value per entry).
Field: numeric (%). Do not append units.

Here are 5 molecules together with their reported answers.
MOLECULE SMILES | Drug excretion / %
CC(C)[C@]1(C)SC(N[C@H]2C[C@H]3C[C@@H]2[C@H](O)C3)=NC1=O | 29
C[C@H](CO)[C@]1(C)SC(N[C@H]2C[C@@H]3CC[C@H]2C3)=NC1=O | 29
CC(C)[C@]1(C)SC(N[C@H]2C[C@H]3C[C@@H]2C[C@H]3O)=NC1=O | 29
C[C@@H](CO)[C@]1(C)SC(N[C@H]2C[C@H]3C[C@@H]2C[C@H]3O)=NC1=O | 8.3
C[C@@H](CO)[C@]1(C)SC(N[C@H]2C[C@@H]3CC[C@H]2C3)=NC1=O | 29

[Q] For `CC(C)[C@]1(C)SC(N[C@H]2C[C@H]3C[C@@H]2[C@H](O)[C@@H]3O)=NC1=O` , what is its reported Drug excretion?
[A] 8.3

[Q] May I ask what Drug excretion has been recorded for `CC(C)(O)[C@]1(C)SC(N[C@H]2C[C@H]3C[C@@H]2C[C@@H]3O)=NC1=O` ?
[A] 8.3

[Q] # input molecule: `C[C@H](CO)[C@]1(C)SC(N[C@H]2C[C@H]3C[C@@H]2[C@H](O)C3)=NC1=O` ; wanted: its Drug excretion
[A] 8.3
